- ASSAY PROCEDURE: inhibitors of TNFa-induced NFkB p65 translocation, primary screen, imaging, HUVEC, MLSMR starter and 10KST1 sets (AID 438);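 note: compound added about 3h40 before a 20 min TNFalpha stimulation; signal is the nuclear over cytoplasmic p65 intensity ratio per well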
- RUN PARAMETERS: HUVEC TNFa-induced p65 nuclear translocation; at 2 µM, active compounds read high, 0% TNFa-plus-vehicle, 100% no-TNFa wells
READOUT TYPE: inhibition (%)
Numbers only, in %.

Before answering, review these 5 worked examples.
* CCCOC(=O)C1C2C=CC3(CN(c4cccc(Cl)c4)C(=O)C13)O2 (stereo unspecified) | -5.5
* Cc1ccc(-c2n[nH]c(=O)c3ccccc23)cc1S(=O)(=O)NCCN1CCOCC1 | -1.8
* Cc1noc(C)c1CSc1ccccc1C(=O)N1CCN(c2ccccc2)CC1 | -1.2
* Cc1ccc(-c2ccc(=O)n(CCC(=O)NCCN3CCCCC3C)n2)cc1 (stereo unspecified) | 4.2
* C/C(=N\O)C(=O)NCCCn1ccnc1 | -10.8

Could you now look at the following compound, please?
*Q* Using known records, supply inhibition for CC(Sc1ccc2ccccc2n1)C(=O)O (stereo unspecified)
*A* -5.5

----------
- ASSAY PROCEDURE: inhibitors of Sendai virus-induced IRF3 signaling, primary screen, TLR/RLR signaling modifier project, cell-based, Sendai virus stimulus, luciferase, 10K MLSCN set (AID 602276);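 note: firefly luciferase from ISG56 promoter only with Renilla not read in this screen; 0% = Sendai virus plus DMSO and 100% = medium plus DMSO without virus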
- RUN PARAMETERS: HEK293 RL24 IRF3 luciferase reporter, at 10 µM, active compounds read high
Active and inactive are the calls of the source.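 Rule for the calls: active = inhibition at or above 50% at 10 µM; inactive = inhibition below 50%.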
Field: inhibition. Provide a value for each of the compounds that follow.

* COC(=O)Cc1c(C)c2ccc(OCC(=O)N3CCOCC3)cc2oc1=O | 17.8% (inactive)
* O=C(c1ccccc1)c1ccncc1 | 19% (inactive)
* Cc1cccc(-n2ncc3c(NCc4cccnc4)ncnc32)c1 | -49.1% (inactive)
* Cc1ccc(-n2nnnc2SCC(=O)Nc2c(C)n(C)n(-c3ccccc3)c2=O)cc1 | -6.61% (inactive)
* COc1cc(Cl)c(C)cc1NC(=O)COC(=O)c1cnc(C)cn1 | -3.59% (inactive)
* CCOc1ccccc1C(=O)NC(C)c1ccc2c(c1)OCO2 (configuration not stated) | 15.1% (inactive)

Provide inhibition for all items below, preserving their order.
1. COc1ccc(NC(=O)CSc2nnc(Cc3cccn3C)n2-c2ccc(F)cc2)cc1
2. COc1ccccc1-c1nc2n(n1)C(c1cccs1)C(C(=O)Nc1cccnc1)=C(C)N2 (configuration not stated)
3. COc1ccc(OC)c2[nH]c(=O)c(CCNC(=O)C(C)C)cc12
4. O=C(NCc1ccc2c(c1)OCO2)c1ccccn1

*A*
1: 15% (inactive); 2: -11.5% (inactive); 3: -3.11% (inactive); 4: -23.2% (inactive)

Provide inhibition for all items below, preserving their order.
1. CCc1ccccc1OCCCCCNCCO
2. O=C(c1cnn2c1NC(c1ccco1)CC2C(F)(F)F)N1CCN(c2cccc(Cl)c2)CC1 (configuration not stated)
3. Cc1ccc(S(=O)(=O)Cc2ccc(C(=O)N3CCN(Cc4ccccc4)CC3)o2)cc1
4. COc1cccc(-c2nc(CSCC(=O)N3CCc4ccccc43)c(C)o2)c1
5. CCN(CC)S(=O)(=O)N1CCC(C(=O)NC2CCCc3ccccc32)CC1 (configuration not stated)

*A*
["10.8% (inactive)", "46.3% (inactive)", "10.7% (inactive)", "-10.3% (inactive)", "-11.5% (inactive)"]
